Just for reference, ChEMBL document CHEMBL4118216 is where these values come from.

Assay: Aqueous solubility of the compound in 0.1 M sodium phosphate buffer at pH 7.4
Assay type: physicochemical
Entries and their solubility

{"Compound": "CC12CC3CC(C)(C1)CC(NC(=S)NCCc1ccccc1)(C3)C2", "solubility": "8 to 12 µM"}
{"Compound": "CC12CC3CC(C)(C1)CC(NC(=S)Nc1ccc(C45CC6CC(CC(C6)C4)C5)cc1)(C3)C2", "solubility": "70 to 80 µM"}

Ask: Field request: solubility | item: "CC12CC3CC(C)(C1)CC(NC(=S)Nc1ccccc1)(C3)C2"
Reply: 40 to 60 µM

Ask: Field request: solubility | item: CC(NC(=S)NCCCCCCCCNC(=S)NC(C)C12CC3CC(CC(C3)C1)C2)C12CC3CC(CC(C3)C1)C2 (stereo not given)
Reply: 120 to 130 µM

Ask: Field request: solubility | item: "S=C(NCCCCCNC(=S)NC12CC3CC(CC(C3)C1)C2)NC12CC3CC(CC(C3)C1)C2"
Reply: 80 to 90 µM

Ask: Field request: solubility | item: CC(NC(=S)Nc1ccc(C23CC4CC(CC(C4)C2)C3)cc1)C12CC3CC(CC(C3)C1)C2 (stereo not given)
Reply: 10 to 15 µM

Ask: Field request: solubility | item: S=C(NCCc1ccccc1)NC1C2CC3CC(C2)CC1C3 (stereo not given)
Reply: 20 to 30 µM

Ask: Field request: solubility | item: "S=C(NCC12CC3CC(CC(C3)C1)C2)Nc1ccc(C23CC4CC(CC(C4)C2)C3)cc1"
Reply: 65 to 75 µM

Ask: Field request: solubility | item: CC(NC(=S)NC1C2CC3CC(C2)CC1C3)C12CC3CC(CC(C3)C1)C2 (stereo not given)
Reply: 30 to 40 µM

Ask: Field request: solubility | item: "S=C(NCCCCCCCCCCNC(=S)NC12CC3CC(CC(C3)C1)C2)NC12CC3CC(CC(C3)C1)C2"
Reply: 35 to 45 µM

Ask: Field request: solubility | item: CC12CC3CC(C)(C1)CC(NC(=S)NC1C4CC5CC(C4)CC1C5)(C3)C2 (stereo not given)
Reply: 80 to 90 µM

Ask: Field request: solubility | item: CC(NC(=S)Nc1ccc(F)cc1)C12CC3CC(CC(C3)C1)C2 (stereo not given)
Reply: 75 to 100 µM

Ask: Field request: solubility | item: "S=C(NCCNC(=S)NC12CC3CC(CC(C3)C1)C2)NC12CC3CC(CC(C3)C1)C2"
Reply: 100 to 110 µM

Ask: Field request: solubility | item: "Fc1ccc(NC(=S)NCCC23CC4CC(CC(C4)C2)C3)cc1"
Reply: 125 to 150 µM
